Reference source for all entries: patent US4551460A

# method.description: LD50 in mice (acute toxicity)
# condition: mouse, in vivo, po, orally
Recorded LD50 by entry

>  <structure>
CC(C)c1ccc2nc3ccc(C(=O)NCCCCc4ccncc4)cn3c(=O)c2c1

>  <LD50>
> 1000 mg/kg

$$$$
>  <structure>
CC(C)c1ccc2nc3ccc(C(=O)NCCCCc4cccnc4)cn3c(=O)c2c1

>  <LD50>
> 1000 mg/kg

$$$$
>  <structure>
CC(C)c1ccc2nc3ccc(C(=O)NCCCCn4ccnc4)cn3c(=O)c2c1

>  <LD50>
775 mg/kg

$$$$

====

# Test system: leukotriene E induced bronchoconstriction
# method.description: Guinea pig bronchoconstriction, in vivo (aerosol)
# Set-up: species or system guinea pig (Hartly strain)
# condition: aerosol at concentration inhibiting bronchoconstriction by 80%
# Protocol: (c) Guinea Pig Bronchoconstriction, In Vivo (Aerosol): Male guinea pigs (Hartly strain) weighing 300 to 500 g are anesthetized with urethane (2 g/kg) intraperitoneally and a polyethylene cannula is inserted into the jugular vein for drug administration. Tracheal pressure is recorded from a cannula inserted in the trachea and connected to a Statham pressure transducer. After surgical preparation of the animals, a period of time is allowed for pulmonary functions to stabilize. […]
experimental.readout: Biological half-life (min)

>  <molecule>
CCCc1c(OCC(O)COc2ccc3c(=O)cc(C(=O)O)oc3c2CCC)ccc(C(C)=O)c1O (centres unmarked) [FPL 55712, reference compound]

>  <experimental.readout>
Biological half-life

>  <meas.value>
77

$$$$
>  <molecule>
CC(C)c1ccc2nc3ccc(C(=O)NCCCCn4ccnc4)cn3c(=O)c2c1

>  <experimental.readout>
Biological half-life

>  <meas.value>
56

$$$$
>  <molecule>
CC(C)NCC(O)c1ccc(O)c(O)c1 (centres unmarked)

>  <experimental.readout>
Biological half-life

>  <meas.value>
19.4

$$$$
>  <molecule>
CC(C)c1ccc2nc3ccc(C(=O)NCCCCc4cccnc4)cn3c(=O)c2c1

>  <experimental.readout>
Biological half-life

>  <meas.value>
7

$$$$
>  <molecule>
CCCCC[C@H](O)/C=C/[C@H]1[C@H](O)CC(=O)[C@@H]1C/C=C\CCCC(=O)O

>  <experimental.readout>
Biological half-life

>  <meas.value>
2.1

$$$$
